Reported IC50 values for the following molecules.
biological target: recombinant human CYP17 enzyme (Homo sapiens (Human), UniProt P05093); test: Cytochrome P450, 17-20 lyase (CYP17-lyase) assay, tritiated acetic acid release from 17-α-hydroxy pregnenolone [21-3H]; type: biochemical; conditions: human CYP17, substrate 0.25 μM; read-out: Lyase IC 50 nM Human/Rat (Human)
Sequence (P05093 whole entry): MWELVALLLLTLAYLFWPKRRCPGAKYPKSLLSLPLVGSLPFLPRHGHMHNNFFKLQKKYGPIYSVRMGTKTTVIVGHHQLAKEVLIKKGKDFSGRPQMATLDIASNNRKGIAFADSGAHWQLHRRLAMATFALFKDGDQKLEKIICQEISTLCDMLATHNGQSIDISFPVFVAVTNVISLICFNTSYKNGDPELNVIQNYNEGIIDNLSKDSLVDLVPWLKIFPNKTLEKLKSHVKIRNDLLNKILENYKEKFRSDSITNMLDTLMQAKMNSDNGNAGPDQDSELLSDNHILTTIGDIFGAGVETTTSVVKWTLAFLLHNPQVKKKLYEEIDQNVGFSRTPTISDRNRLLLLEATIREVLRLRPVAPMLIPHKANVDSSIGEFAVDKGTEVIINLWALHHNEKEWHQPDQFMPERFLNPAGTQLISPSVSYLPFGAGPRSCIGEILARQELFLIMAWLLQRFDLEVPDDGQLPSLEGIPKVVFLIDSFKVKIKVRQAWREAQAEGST

# Molecule, IC50 (nM)
records = [
    ("Cc1ccncc1N1CCN(c2csc3ccnc(Cl)c23)C1=O [Example 99A]", 22),
    ("Cc1ccncc1N1CCN(c2ccc(F)c(C#N)c2)C1=O [Example 103A]", 19),
    ("CC1(C)CN(c2ccc3ncsc3c2)C(=O)N1c1cccnc1 [Example 164A]", 70),
    ("Cc1ccncc1N1CCN(c2ccc3c(c2)OCCO3)C1=O [Example 49A]", 30),
    ("Cc1ccncc1N1CCN(c2ccc3c(C(F)(F)F)n[nH]c3c2)C1=O [Example 160A]", 34),
    ("Cc1nc2ccc(N3CCN(c4cnccc4C)C3=O)cc2s1 [Example 105A]", 1470),
    ("Cc1ccncc1-n1ccn(-c2ccc3sccc3c2)c1=O [Example 139A]", 83),
    ("Cc1ccncc1N1CCN(c2ccc(F)c(C(F)(F)F)c2)C1=O [Example 90A]", 5),
    ("Cc1ccncc1N1CCN(c2ccc3cn[nH]c3c2)C1=O [Example 121A]", 2.5),
    ("O=C1N(c2cccnc2)CCN1c1ccc2ncsc2c1", 77),
]
